Values were extracted from ChEMBL document CHEMBL1124284.

Assay notes: Inhibition of partially purified soluble aminopeptidase from rat brain
Measurement parameters: read-out: I50
Please respond with rule met when measured IC50 is strictly beneath 0.3 µM, and with rule not met in all other cases.

{"Molecule": "CC(C)C[C@H](NC(=O)C(S)[C@H](N)Cc1ccccc1)C(=O)O (stereo in doubt; 79)", "Assigned category": "rule met"}
{"Molecule": "CC(C)C[C@@H](NC(=O)[C@H](Cc1ccccc1)NCC(O)[C@@H](N)Cc1ccccc1)C(=O)O (stereo partly drawn)", "Assigned category": "rule not met"}
{"Molecule": "CC(C)C[C@@H](NC(=O)[C@H](Cc1ccccc1)NCC(S)[C@@H](N)CC(C)C)C(=O)O (stereo partly drawn)", "Assigned category": "rule met"}
{"Molecule": "CC(C)C[C@@H](NC(=O)[C@H](Cc1ccccc1)NCC(S)[C@@H](N)Cc1ccccc1)C(=O)O (stereo partly drawn)", "Assigned category": "rule met"}
{"Molecule": "CC(C)CCNCC(S)[C@@H](N)CC(C)C (stereo in doubt; 56)", "Assigned category": "rule met"}
{"Molecule": "CC(C)C[C@H](NC(=O)C(S)[C@H](N)Cc1ccccc1)C(=O)O (stereo in doubt; 78)", "Assigned category": "rule not met"}
{"Molecule": "CC(C)C[C@H](NC(=O)C(S)[C@@H](N)Cc1ccccc1)C(=O)O (stereo partly drawn)", "Assigned category": "rule not met"}
{"Molecule": "CC(C)CCNCC(S)[C@H](N)CC(C)C (stereo in doubt; 60)", "Assigned category": "rule not met"}
{"Molecule": "CC(C)CCNCC(S)[C@@H](N)Cc1ccccc1 (stereo in doubt; 54)", "Assigned category": "rule met"}
{"Molecule": "CC(C)C[C@H](NCC(S)[C@@H](N)Cc1ccccc1)C(=O)O (stereo in doubt; 70)", "Assigned category": "rule not met"}
{"Molecule": "CC(C)C[C@H](NCC(S)[C@@H](N)CC(C)C)C(N)=O (stereo partly drawn)", "Assigned category": "rule met"}
{"Molecule": "N[C@H](CS)Cc1ccccc1", "Assigned category": "rule met"}
{"Molecule": "N[C@@H](CS)Cc1ccccc1", "Assigned category": "rule not met"}
{"Molecule": "CC(C)CCNCC(S)[C@@H](N)CC(C)C (stereo in doubt; 55)", "Assigned category": "rule met"}
{"Molecule": "CC(C)CCNCC(S)[C@H](N)Cc1ccccc1 (stereo in doubt; 58)", "Assigned category": "rule not met"}
{"Molecule": "CC(C)C[C@H](NCC(S)[C@@H](N)Cc1ccccc1)C(N)=O (stereo partly drawn)", "Assigned category": "rule met"}
{"Molecule": "CC(C)C[C@H](NCC(S)[C@@H](N)Cc1ccccc1)C(=O)O (stereo in doubt; 71)", "Assigned category": "rule met"}
{"Molecule": "CC(C)CCNCC(S)[C@H](N)CC(C)C (stereo in doubt; 59)", "Assigned category": "rule not met"}
{"Molecule": "CC(C)C[C@H](NC(=O)[C@@H](O)[C@H](N)Cc1ccccc1)C(=O)O", "Assigned category": "rule met"}
{"Molecule": "CC(C)C[C@H](N)CS", "Assigned category": "rule met"}
{"Molecule": "CC(C)CCNCC(S)[C@H](N)Cc1ccccc1 (stereo in doubt; 57)", "Assigned category": "rule not met"}
{"Molecule": "CC(C)C[C@@H](NC(=O)[C@H](Cc1ccccc1)NCCS)C(=O)O", "Assigned category": "rule not met"}
